# Test system: Wolbachia pipientis
# TEST: Anti-Wolbachia Cell-Based Screen
# Type: functional
# Design: scale not given: in the data most compounds retested in dose-response had high values
# EXPERIMENTAL CONTEXT: 5 µM
The campaign covered roughly 48,000 compounds. About 13,000 (27%) showed an effect of 50% or more. Some of the results follow.
Exercise: for every item that follows, state its recorded Percent Effect.
Provide only the numeric value, understood in %.

Prompt line: Request body: readout Percent Effect, system Wolbachia pipientis, query CCNC(=O)[C@@H]1C[C@H](N)CN1Cc1ccc2cccc(Cl)c2n1 . Return the value.
Response line: 33.76

Prompt line: And the next one, CCN1CCn2c(C)cnc2C12CCN(C(=O)c1ccco1)CC2.O=C(O)C(F)(F)F.O=C(O)C(F)(F)F ?
Response line: 97.51

Prompt line: And the next one, O=C(C1CCC2(CCN(CC3CC3)CC2)O1)N1CCCC1.O=C(O)C(F)(F)F (stereo not drawn) ?
Response line: -8.008

Prompt line: And the next one, CC(CNC(=O)CCCc1ccccn1)c1ccsc1 (stereo not drawn) ?
Response line: 1.971

Prompt line: And the next one, COc1ccc(-c2n[nH]cc2CN(C)Cc2ccoc2)c(F)c1 ?
Response line: 10.13

Prompt line: And the next one, Cc1nn(C)c(C)c1CCC(=O)NCc1cccnc1OC1CCCC1 ?
Response line: 8.443

Prompt line: And the next one, Cc1cc(C(=O)N2CCCC3(CCCN3Cc3cccnc3)C2)[nH]n1 (stereo not drawn) ?
Response line: 0.008691

Prompt line: And the next one, O=C1COc2ccc(S(=O)(=O)NC3CC3)c3c2N1CCC3 ?
Response line: -10.68

Prompt line: And the next one, Cc1nn(C)c2nc(N(Cc3ccncc3)CC3CCCO3)sc12 (stereo not drawn) ?
Response line: -11.41

Prompt line: And the next one, CCN(CC)C(=O)N1CCN(CCc2ccncc2)CC1 ?
Response line: 2.653

Prompt line: And the next one, CC(C)CC(=O)N1CCN(Cc2cc(-c3ccncc3)nn2C)CC1 ?
Response line: 111

Prompt line: And the next one, Cc1cc2nc(CO[C@H]3CN(CC4CC4)C[C@H]3F)[nH]c2cc1C ?
Response line: -2.135

Prompt line: And the next one, CCCc1nn(C2CCN(C3CC3)C2=O)c(=O)o1 (stereo not drawn) ?
Response line: -0.5192

====

# Test system: Wolbachia pipientis
# TEST: Anti-Wolbachia Cell-Based Screen
# Format: functional
# Parameters: scale not given: in the data most compounds retested in dose-response had high values
# EXPERIMENTAL CONTEXT: 5 µM
Screen size: about 48,000 compounds; about 13,000 (27%) showed an effect of 50% or more. This is one part of the list.
Exercise: for every item that follows, state its recorded Percent Effect.
Provide only the numeric value, understood in %.

Prompt line: Request body: readout Percent Effect, system Wolbachia pipientis, query CC(CN1CCOCC1)N(Cc1ccccc1)Cc1ccncc1 (stereo not given) . Return the value.
Response line: 4.516

Prompt line: And the next one, CS(=O)(=O)c1cccc2c1CCCN2C(=O)Cc1cccc(F)c1 ?
Response line: 14.6

Prompt line: And the next one, Nc1nccc(C2CCN(CC3CC3)C2)n1 (stereo not given) ?
Response line: 123.6

Prompt line: And the next one, Cc1ccc(-c2noc(CCC3CCN(C)CC3)n2)nn1 ?
Response line: -9.501

Prompt line: And the next one, N#Cc1ccc(CN2CCC(c3ccnn3CCO)CC2)cc1 ?
Response line: -5.885

Prompt line: And the next one, Cc1ccc(C(NC(=O)CN2CCc3cncnc3C2)C2CC2)cc1 (stereo not given) ?
Response line: 0.6852

Prompt line: And the next one, c1ccc(CCN2CCOC(Cn3cccn3)C2)nc1 (stereo not given) ?
Response line: 5.708

Prompt line: And the next one, Cc1nc(CNC(=O)C(C)(C)c2ccc(F)cc2)no1 ?
Response line: 7.656

Prompt line: And the next one, O=C(O)C(F)(F)F.c1coc(CN2CCn3c(COCC4CC4)nnc3C2)c1 ?
Response line: -16.88

Prompt line: And the next one, CC1CCN(CCCNS(=O)(=O)c2cc(F)cc(F)c2)CC1.Cl ?
Response line: -12.88
